# System name: UniProt P00742
# Sequence (P00742 235-488 limits assumed): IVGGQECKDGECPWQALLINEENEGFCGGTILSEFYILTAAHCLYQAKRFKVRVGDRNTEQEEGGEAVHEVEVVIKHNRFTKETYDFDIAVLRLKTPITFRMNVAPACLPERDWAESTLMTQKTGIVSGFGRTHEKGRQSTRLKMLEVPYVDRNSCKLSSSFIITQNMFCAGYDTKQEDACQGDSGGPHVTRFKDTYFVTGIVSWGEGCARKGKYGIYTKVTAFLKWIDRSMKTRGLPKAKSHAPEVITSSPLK
# Sequence (P00742 41-179 partner limits assumed): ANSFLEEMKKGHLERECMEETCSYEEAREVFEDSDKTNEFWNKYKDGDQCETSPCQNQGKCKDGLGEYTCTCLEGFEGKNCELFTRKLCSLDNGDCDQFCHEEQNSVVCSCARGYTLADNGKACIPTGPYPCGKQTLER
# Protocol: Factor Xa assay (chromogenic, substrate S-2765);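 further: purified enzyme preincubated with inhibitor for 10 min before substrate addition, final reaction volume 100 µl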
# Format: biochemical
# Test settings: read-out: Ki(FXa)
Listing of entries alongside the reported Ki.
Number in nM, nothing else.

Use these answered entries as a reference point.
CCN1CCN(NC(=O)c2cc3ccccc3n2Cc2cc(-c3ccc(Cl)s3)on2)CC1 :: 28
NCC(=O)N1CCC(NC(=O)c2cc3ccccc3n2Cc2cc(-c3ccc(Cl)s3)on2)CC1 :: 891

Now look at this one.
*Q* Which Ki is listed for CCOC(=O)CN(C(=O)c1cc2c(Cl)cccc2n1Cc1cc(-c2ccc(Cl)s2)on1)C1CCN(C(C)C)CC1 ?
*A* 51
